Below, IC50 values reported for Serine/threonine-protein kinase mTOR (Homo sapiens, UniProt P42345) across several publications.
measuredAttribute: IC50

1. CC(=O)Nc1nc2ccc(-c3cnc(Cl)c(NS(=O)(=O)c4ccccc4)c3)cc2s1
< 0.001 µM
2. CCn1nc(C#Cc2cc(C(=O)Nc3ccc(CN4CCN(C)CC4)c(C(F)(F)F)c3)ccc2C)c2c(N)ncnc21
> 10 µM
3. COc1ncc2cc1NS(=O)(=O)c1cccc(c1)C(=O)NC[C@H]1CCN(C1)c1ncnc3c1SC2=C3C
> 10 µM
4. CS(=O)(=O)N1CCN(Cc2nc3c(N4CCOCC4)nc(-c4cccc5[nH]ncc45)cn3c2Br)CC1
> 10 µM

* * *

pIC50: −log10 of the molar value.
Listed below are molecules with pIC50 for Serine/threonine-protein kinase mTOR (Homo sapiens, UniProt P42345), each taken from published literature.
measuredAttribute: pIC50

1. CC(C)n1c(=O)n(C)c2cnc3cc(F)c(-c4ccc(OCCCN5CCCCC5)nc4)cc3c21
≤ 6.00
2. COCc1cnc(Nc2ccc(OC)nc2)c(-c2nc(C)nc(N)n2)c1
< 5.00
3. CC(=O)Nc1nc2ccc(-c3ccnc(Sc4cccc(C)c4)n3)cc2s1
< 5.22
4. O=C(Nc1cccc(-c2ccnc3cc(-c4ccncc4)nn23)c1)c1cccc(C(F)(F)F)c1
< 4.30
5. CC(=O)Nc1cnc2ccc(-c3cnc4ccccc4c3)cc2c1Nc1ccc(C#N)cc1
< 5.52

* * *

pIC50: −log10 of the molar value.
Record: compiled pIC50 on Serine/threonine-protein kinase mTOR (Homo sapiens, UniProt P42345) from multiple reports.
measuredAttribute: pIC50

1) COc1ccc(Oc2cc(C)c(-c3csc(NC(=O)c4ccnc(F)c4)n3)c(C)c2)cc1
< 5.00
2) Cc1cccc(Nc2nccc(-c3ccnc(N4CCOCC4)c3)n2)c1
< 4.70
3) O=c1cc(N2CCOCC2)nc(Cc2nc3c(-c4ccccn4)cccc3o2)[nH]1
< 5.00
4) Fc1cccc(Cn2cc(/C=N/Nc3nc(N4CCOCC4)c4sccc4n3)c3ccccc32)c1
< 4.52

* * *

This section presents pIC50 values reported for Serine/threonine-protein kinase mTOR (Homo sapiens, UniProt P42345) in the literature.
pIC50: −log10 of the molar value.
measuredAttribute: pIC50

1) C[C@@H]1COCCN1c1nc(-c2cncc3[nH]ccc23)cc2c1ncn2[C@@H](C)S(C)(=O)=O
< 5.34
2) O=c1cc(N2CCOCC2)nc(Cc2nc3ccc(Cl)cc3[nH]2)[nH]1
< 5.00
3) COc1ncc2cc1NS(=O)(=O)c1cccc(c1)C(=O)NCC1=C(C)C=C(S1)c1ncnc3c1SC2=C3
< 5.00
4) CC(=O)Nc1nc2ccc(-c3cnc(Cl)c(NS(=O)(=O)c4cccc(Cl)c4)c3)cc2s1
> 9.00
5) COCCCNC(=O)c1cn2cc(-c3cccc4[nH]ncc34)nc(N3CCOCC3)c2n1
< 5.00
6) CC(=O)Nc1nc2ccc(-c3ccnc(OCc4ccc(C)cc4)n3)cc2s1
< 5.22
7) O=S1(=O)CC2(OCCO2)c2cc3nccc(Nc4ccc5scnc5c4)c3cc21
< 5.00
8) CC(C)(C)c1ccc(S(=O)(=O)N2CCN(Cn3cc4c(=O)oc5ccccc5c4n3)CC2)cc1
< 5.00
9) Cc1cc(-c2cccnc2Nc2cccc(O)c2)nc(N)n1
< 5.00
10) CC(=O)Nc1nc2ccc(-c3ccnc(Sc4ccccc4C)n3)cc2s1
< 5.22
11) CNc1ncc2c(-c3ccc(N4CCNCC4)nc3)nn(Cc3cn(Cc4ccccc4)nn3)c2n1
< 5.00
12) COC[C@H]1OC(=O)/C(=C/NC(C)(C)C)C2=C(O)C(=O)C3=C([C@H](OC(C)=O)C[C@]4(C)[C@@H](O)CC[C@@H]34)[C@]21C
< 4.70

* * *

pIC50 values for Serine/threonine-protein kinase mTOR (Homo sapiens, UniProt P42345) compiled from several publications are listed below.
pIC50: −log10 of the molar value.
measuredAttribute: pIC50

1) C[C@H]1COCCN1c1nc(-c2ccc(NC(=O)NCC(F)F)cc2)cc(-c2cc(F)ccc2S(C)(=O)=O)n1
> 6.00
2) Cc1cccc2nc(Cc3nc(N4CCOCC4)cc(=O)[nH]3)oc12
< 5.00
3) Nc1ccc(-c2nn(CCCCC(=O)NO)c3ncnc(N)c23)cn1
< 6.00
4) O=c1cc(N2CCOCC2)nc(Cc2nc3cccc(-c4ccccc4)c3o2)[nH]1
< 5.00
5) COc1ccc(C(=O)Nc2nccc(-c3ccc4nc(NC(C)=O)sc4c3)n2)cc1
< 5.22
6) CS(=O)(=O)N1CCN(Cc2cn3cc(-c4cccc5[nH]ncc45)nc(N4CCOCC4)c3n2)CC1
< 5.00
